# System Tested: UniProt:Q13191
# Method Description: Cbl-b LCK Ub TR-FRET assay (Cbl-b Lck HTRF)
# Format: biochemical
# Measurement Conditions: Cbl-b LCK Ub TR-FRET
Measured Parameter: IC50 (nM)

As a guide, the following entries are already answered.
* COC[C@H]1CC1(c1cccc(N2Cc3c(cc(CNC4(C)CCC4)cc3C(F)(F)F)C2=O)c1)c1nncn1C (single isomer, unassigned) [Compound 167] | 1400
* C[C@@H](NC1(C)CCC1)c1cc(Cl)c2c(c1)C(=O)N(c1cccc([C@]3(c4nncn4C)C[C@@H](F)C3)c1)C2 (single isomer, unassigned) [Compound 288] | 5.3
* Cn1cnnc1[C@]1(c2cccc(N3Cc4c(cc(CNC5(C)CCC5)cc4C(F)(F)F)C3=O)c2)C[C@H](CO)C1.O=CO [Compound 99] | 86
* C=CCNc1cc(N2Cc3c(cc(CNC4(C)CCC4)cc3C(F)(F)F)C2=O)cc([C@]2(c3nncn3C)C[C@@H](OC)C2)c1 [Compound 240] | 14
* Cn1cnnc1C1(c2cccc(N3Cc4c(cc(CNC5(C)CCC5)cc4C(F)(F)F)C3=O)c2)CN(S(C)(=O)=O)C1 [Compound 113] | 3500
* Cn1cnnc1C1(c2cccc(N3Cc4c(cc(CNC5(C)CCC5)cc4C(F)(F)F)C3=O)c2)CC2(CC(=O)C2)C1 [Compound 92] | 13

(1) CO[C@H]1C[C@@](c2cc(NC3CCCC3)nc(N3Cc4c(cc(CNC5(C)CCC5)cc4C(F)(F)F)C3=O)c2)(c2nncn2C)C1 [Compound 8]
(2) Cn1cnnc1[C@]1(c2cc(NC3CCCC3)cc(N3Cc4c(cc(CNC5(C)CCC5)cc4C(F)(F)F)C3=O)c2)C[C@H](C)C1 [Compound 177]
(3) Cn1cnnc1[C@@H](CC1COC1)c1cccc(N2Cc3c(cc(CNC4(C)CCC4)cc3C(F)(F)F)C2=O)c1 [Compound 244]
(4) Cn1cnnc1C1(c2cccc(N3Cc4c(cc(CNC5(C)CCC5)cc4C(F)(F)F)C3=O)c2)CC2(CC(O)C2)C1 (stereo not drawn) [Compound 93]
(5) Cn1cnnc1C1(c2cccc(N3Cc4c(cc(CNC5(C)CCC5)cc4C(F)(F)F)C3=O)c2)CCOCC1 [Compound 282]
Arrange these compounds by their IC50, starting with the largest number. List each label, following the requested order.
3, 5, 4, 2, 1
(3: 3100 nM, 5: 410 nM, 4: 120 nM, 2: 59 nM, 1: 11 nM)

* * *

# System Tested: Human Cbl-b (residues 40-426) (Homo sapiens (Human))
# Sequence (Q13191 40-426): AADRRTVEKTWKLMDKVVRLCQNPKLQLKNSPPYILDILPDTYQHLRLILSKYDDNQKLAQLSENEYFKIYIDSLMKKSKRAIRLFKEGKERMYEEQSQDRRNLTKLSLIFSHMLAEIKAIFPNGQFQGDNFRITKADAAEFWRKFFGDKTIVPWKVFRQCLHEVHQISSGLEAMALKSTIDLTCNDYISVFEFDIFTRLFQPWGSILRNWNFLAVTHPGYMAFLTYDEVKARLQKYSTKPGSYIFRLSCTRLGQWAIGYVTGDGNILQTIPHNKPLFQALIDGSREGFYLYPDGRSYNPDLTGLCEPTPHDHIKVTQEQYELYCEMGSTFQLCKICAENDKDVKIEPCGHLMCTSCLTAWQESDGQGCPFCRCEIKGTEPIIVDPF
# Method Description: Cbl-b SPR assay
# Assay type: binding
# Measurement Conditions: C-cbl SPR Kd vs Cbl-b SPR Kd
Measured Parameter: Fold of selectivity (×)

Example results:
* CO[C@H]1C[C@](c2cccc(N3Cc4c(cc(CNCC5CC56CC6(F)F)cc4C(F)(F)F)C3=O)c2)(c2nncn2C)C1 (some centres unmarked) | 18
* CO[C@H]1C[C@](c2cccc(N3Cc4c(cc(CNCC5(CO)CCC5)cc4C(F)(F)F)C3=O)c2)(c2nncn2C)C1 | 7.8
* COc1cc([C@@H](c2nncn2C)C2COC2)cc(N2Cc3c(cc(CNC4(C)CCC4)cc3C(F)(F)F)C2=O)c1 (single isomer, unassigned) | 2.5

(1) Cn1cnnc1[C@]1(c2cc(NC3CC(F)(F)C3)nc(N3Cc4c(cc(CNC5(C)CCC5)cc4C(F)(F)F)C3=O)c2)C[C@@H](C)C1
(2) CO[C@H]1C[C@](c2cccc(N3Cc4c(cc(CNCC5(CO)CC6CC6C5)cc4C(F)(F)F)C3=O)c2)(c2nncn2C)C1 (some centres unmarked)
Hi, I'm comparing 1 with 2 and wondering which one has the bigger number for Fold of selectivity. Any idea? Kindly state the label of the option you pick.
2
